# targetOrSystem: GABA A receptor α5β3γ2 (hα5) (Homo sapiens, UniProt P18507+P31644)
# Construct: expressed in transfected cells; host or cells: HEK293, transiently transfected; membranes
# testDetails: [3H]flumazenil competition binding, membranes of HEK293 cells expressing human GABA A α5β3γ2
measuredProperty: pKi
Give bare numbers, as −log10 of the molar value.

Record excerpt, results attached:
compound	pKi
Cc1ccc2c(c1)-c1nc(Cc3cc(C)no3)nn1Cc1c(C)ncn1-2 [Example 236]	9.10
Cc1cc(Cc2nc3n(n2)Cc2c(C)ncn2-c2ccc(Br)cc2-3)on1 [Example 123]	9.22
Cc1noc(Cc2nc3n(n2)Cc2c(C)ncn2-c2ccc(Br)cc2-3)n1 [Example 349]	9.05
Cc1cc(Cc2nc3n(n2)Cc2c(C)ncn2-c2ccc(Cl)cc2-3)on1 [Example 183]	9.22

Shift focus to the following entry.
Query block: Need pKi, item Cc1ccc(Cc2nc3n(n2)Cc2c(C)ncn2-c2ccc(Cl)cc2-3)cn1 [Example 185]
Result block: 9.05

###

Kindly state Ki for each of the entries shown.
# targetOrSystem: GABA A receptor α5β3γ2 (hα5) (Homo sapiens, UniProt P18507+P31644)
# Construct: expressed in transfected cells; host or cells: HEK293, transiently transfected; membranes
# testDetails: [3H]flumazenil competition binding, membranes of HEK293 cells expressing human GABA A α5β3γ2
# measurementParameters: [3H]flumazenil 0.5 nM, 1 hour at 4° C., means of two determinations; read-out: Ki[nM] hα5
Give bare numbers, in nM.

chemicalString	resultUnits	Ki
O=C(Cc1nc2n(n1)Cc1c(Cl)ncn1-c1ccc(Br)cc1-2)NC1CCOCC1	nM	0.7
CCOC(=O)c1ncn2c1Cn1nc(COC)nc1-c1cc(Cl)ccc1-2	nM	0.3
Cc1ncn2c1Cn1nc(Cc3ccccn3)nc1-c1ccccc1-2	nM	0.7
C[C@H]1CN(Cc2nc3n(n2)Cc2c(Cl)ncn2-c2ccc(Br)cc2-3)C(=O)O1	nM	0.7
Clc1ccc2c(c1)-c1nc(Cn3nnc4ccccc43)nn1Cc1c(Cl)ncn1-2	nM	0.4

Let's switch to this compound now.
Query block: Write down the reported Ki of `O=C1CSC(=O)N1Cc1nc2n(n1)Cc1c(Cl)ncn1-c1ccc(Br)cc1-2` , test system: GABA A receptor α5β3γ2 (hα5) (Homo sapiens, UniProt P18507+P31644).
Result block: 0.5

###

# targetOrSystem: GABA A receptor α1β3γ2 (hα1) (Homo sapiens, UniProt P14867+P18507)
# Construct: expressed in transfected cells; host or cells: HEK293, transiently transfected; membranes
# testDetails: [3H]flumazenil competition binding, membranes of HEK293 cells expressing human GABA A α1β3γ2
Answer each item with its documented log10(Ki).
For clarity, the numbers are log10 values of Ki expressed in nM.

Please report log10(Ki) for every entry that follows.
1. O=C1SCCN1Cc1nc2n(n1)Cc1c(Cl)ncn1-c1ccc(Br)cc1-2
2. CCOC(=O)c1ncn2c1Cn1nc(COC)nc1-c1cc(Cl)ccc1-2
3. Clc1ccc2c(c1)-c1nc(Cn3ccnn3)nn1Cc1c(Cl)ncn1-2
4. C[C@H]1CN(Cc2nc3n(n2)Cc2c(Cl)ncn2-c2ccc(Br)cc2-3)C(=O)O1
5. CN1CCN(Cc2nc3n(n2)Cc2c(Cl)ncn2-c2ccc(Br)cc2-3)C1=O
6. Clc1ccc2c(c1)-c1nc(Cn3cccn3)nn1Cc1c(Cl)ncn1-2

Result block:
1.78
0.93
1.68
1.51
1.79
1.49

Would you be so kind as to report log10(Ki) for each listed record?
1. Cc1ncn2c1Cn1nc(Cn3ccccc3=O)nc1-c1ccccc1-2
2. Cc1ncn2c1Cn1nc(Cc3cccnc3)nc1-c1ccccc1-2
3. O=C1CCCN1Cc1nc2n(n1)Cc1c(Cl)ncn1-c1ccc(Br)cc1-2

Result block:
[1.62, 1.59, 2.06]
